- TARGET_ENTITY: OsWOX13 (Oryza sativa, UniProt Q5QMM3 1-267)
- Sequence: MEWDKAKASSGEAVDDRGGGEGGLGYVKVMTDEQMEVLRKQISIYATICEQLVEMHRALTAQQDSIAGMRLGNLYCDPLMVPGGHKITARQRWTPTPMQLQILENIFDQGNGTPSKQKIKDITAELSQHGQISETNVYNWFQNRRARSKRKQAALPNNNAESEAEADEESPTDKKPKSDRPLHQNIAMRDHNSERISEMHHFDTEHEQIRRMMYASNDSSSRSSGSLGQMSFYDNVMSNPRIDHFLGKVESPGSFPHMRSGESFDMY
- ASSAY_TEXT: protein-binding microarray (RPBM); PBS, 2% BSA, 51.3 ng/ul salmon testes DNA, 50 uM zinc acetate, 200 nM TF, 25 C, 1 h; high values mean tight binding
- MEASUREMENT_CONDITIONS: protein: recombinant; tags: N-terminal polyhistidine and DsRed monomer fusion (pET32a); label: CyDye5-dUTP incorporated in the synthesized complementary strand; 3' TTTTT single-stranded linker to array surface; dsDNA, one strand shown
The full ranking holds about 35,000 sequences; the median of “fluorescence intensity (a.u.)” is about 10,000, and the highest 2% start at about 52,000. Only a selection was taken, and the highest values are over-represented in it overall.
ATTRIBUTE_MEASURED: binding signal

Enquiry: Please supply the value of reported binding signal for the item CATCTAATTTAAATTTAAATGTTTTAAAAGATAGAGACGTCGGAGTCACCTAGTGCAG
Return: 52400 fluorescence intensity (a.u.)

Enquiry: Give me measured binding signal, please, for this sequence: AATTCAAGCTCATCACTGATTTGATAAGACATTAAGATAGCGGAGTCACCTAGTGCAG
Return: 4050 fluorescence intensity (a.u.)

Enquiry: Name the recorded binding signal of the sequence listed here: TGTGAATGTTGTGATTGAGGTGGTATCAGTATCATATCCGCGGAGTCACCTAGTGCAG
Return: 27000 fluorescence intensity (a.u.)

Enquiry: Provide measured binding signal value, entry: ATAATCCCTTGCGATTTATATTGAATTAATAGTTCTTGTTCGGAGTCACCTAGTGCAG
Return: 65000 fluorescence intensity (a.u.)

Enquiry: For the sequence TTTAATTAATTGTAGGACAAGATAGCAAACGTGTGGCTACCGGAGTCACCTAGTGCAG , report binding signal.
Return: 59900 fluorescence intensity (a.u.)

Enquiry: Give the measured binding signal for GTCTTCAAATTATATTAGTTATAACTATAGTTCACACAATCGGAGTCACCTAGTGCAG
Return: 4610 fluorescence intensity (a.u.)

Enquiry: Indicate the recorded binding signal value for this sequence: CGGAAGATTGGAATGGAAATCGGAGAGAGCAGGGGCGGTGCGGAGTCACCTAGTGCAG
Return: 12800 fluorescence intensity (a.u.)

Enquiry: In one line, give reported binding signal of the entry TAATTAAATTGTCATATCACTTCTTAACTTATTGGACTAACGGAGTCACCTAGTGCAG .
Return: 5280 fluorescence intensity (a.u.)

Enquiry: Input ATCTAAATTGTTTTAGATTTGTGCACAAGAACAAAAGAGACGGAGTCACCTAGTGCAG , output reported binding signal.
Return: 16800 fluorescence intensity (a.u.)

Enquiry: Name the recorded binding signal of the item TACTACTAATTATATGCCGATTGAGAGTGTTGTAGCGTCACGGAGTCACCTAGTGCAG in your answer.
Return: 17700 fluorescence intensity (a.u.)

Enquiry: For the sequence GTAAATTGATTTGTATATGGCCATTTCCAACCCAAAACACCGGAGTCACCTAGTGCAG , report binding signal.
Return: 56300 fluorescence intensity (a.u.)

Enquiry: Dear colleague, please send me the reported binding signal for ATGAAAGATTGATATGTTGACATGTTCACAGATGAACTTACGGAGTCACCTAGTGCAG when you can.
Return: 17200 fluorescence intensity (a.u.)

Enquiry: Please list binding signal recorded for the sequence AGCTAAATCTGTGATTGCCGTTGCATCTAGCCACGTCGTCCGGAGTCACCTAGTGCAG
Return: 14600 fluorescence intensity (a.u.)

Enquiry: Provide binding signal value for the following sequence: ATTAATTGGTCGTGTATTAGCAAACGATATATATATCGGTCGGAGTCACCTAGTGCAG
Return: 50500 fluorescence intensity (a.u.)

Enquiry: Look up binding signal of ATGATGATTGGTTGGTTACGGGCATGTTCAGATTGTAGCCCGGAGTCACCTAGTGCAG and report it.
Return: 54900 fluorescence intensity (a.u.)

Enquiry: Identify the reported binding signal for the following entry. CACGATGATTGTTTGTATATGGAAACACCAAAATGGTCTACGGAGTCACCTAGTGCAG
Return: 54700 fluorescence intensity (a.u.)

Enquiry: Return binding signal (reported value) for this sequence: GATGATGATGGATGCGATTGACTGATGAGACGTCTGCTAACGGAGTCACCTAGTGCAG
Return: 50300 fluorescence intensity (a.u.)

Enquiry: Give the reported value of binding signal for this record: AGTAATTAGTATGACCACCCTAATATACGGTAGTATGGTACGGAGTCACCTAGTGCAG
Return: 27200 fluorescence intensity (a.u.)

Enquiry: Quickly give me recorded binding signal for CCTGTTGATTGGTTAGCCCAGCCCATGATGTAGCCCATGACGGAGTCACCTAGTGCAG
Return: 38200 fluorescence intensity (a.u.)

Enquiry: Report binding signal, nothing else, for this sequence: ACCATCATCAATTGATAGTTCTTGTTTCTCTAGTAGTAAGCGGAGTCACCTAGTGCAG
Return: 9360 fluorescence intensity (a.u.)

Enquiry: Tell me binding signal reported for ACAAAATAAAATGATGGGCATTTTCTTCAGTTACAATTTCCGGAGTCACCTAGTGCAG
Return: 3910 fluorescence intensity (a.u.)

Enquiry: Output binding signal of AAAAGAATAATTTATTGTCTTGTTCAGTTAATCCCTCCCTCGGAGTCACCTAGTGCAG
Return: 3330 fluorescence intensity (a.u.)

Enquiry: Answer with reported binding signal of GTGACTGATTGACAGTATCAACCATCTAGTGTTAAGATAGCGGAGTCACCTAGTGCAG
Return: 52800 fluorescence intensity (a.u.)

Enquiry: Supply reported binding signal belonging to this sequence: TTTAATTGTTATGAACACGACAATGTAATCGGATCATAGACGGAGTCACCTAGTGCAG
Return: 10100 fluorescence intensity (a.u.)

Enquiry: In one line, give reported binding signal of the entry TTGATTGTGTGCAACTGACTTTGTCCCCGTTCTATAATATCGGAGTCACCTAGTGCAG .
Return: 8250 fluorescence intensity (a.u.)

Enquiry: Given GGTGAATTGAATGGTTGATTGCCTATCTCATCTTCCGCAGCGGAGTCACCTAGTGCAG , respond with its binding signal.
Return: 64100 fluorescence intensity (a.u.)

Enquiry: In one line, give reported binding signal of the entry AATTGAGACTTCGGTAAAACTTAAGGGACTAAATTAACTACGGAGTCACCTAGTGCAG .
Return: 52700 fluorescence intensity (a.u.)

Enquiry: Give binding signal for CTGTTCACACGGATTGATCATTGATGGATCCATGCTGATGCGGAGTCACCTAGTGCAG
Return: 9220 fluorescence intensity (a.u.)

Enquiry: Identify measured binding signal corresponding to GGCGCACTGATTGTTCATGATTGATGCAGTGATCCGGGCACGGAGTCACCTAGTGCAG
Return: 59600 fluorescence intensity (a.u.)

Enquiry: Retrieve binding signal measured for AATACAATTAATTACAGTTAATTAAATGATAGAAAGAGTTCGGAGTCACCTAGTGCAG and print it.
Return: 55400 fluorescence intensity (a.u.)

Enquiry: Tell me its binding signal given GATGCCATCTAATTTTAAATGATGATGTGGAGAAGAGAGTCGGAGTCACCTAGTGCAG as the entry.
Return: 7100 fluorescence intensity (a.u.)

Enquiry: Tell me its binding signal given CAGTTTAATTGCTCCTCGGATGGATCTGGTATAGTTCTGCCGGAGTCACCTAGTGCAG as the entry.
Return: 20700 fluorescence intensity (a.u.)

Enquiry: Specify measured binding signal for AAGGAAAATTAATAGCATACAGGCATGCATTTACGTACTTCGGAGTCACCTAGTGCAG .
Return: 5500 fluorescence intensity (a.u.)

Enquiry: Look up and state reported binding signal for CACTTAATCATATTCATCATATTCAAACGGGACCTAAGGGCGGAGTCACCTAGTGCAG
Return: 8880 fluorescence intensity (a.u.)
